Documented IC50 across a set of molecules
- TESTED TARGET: PI3Kδ (p110δ/p85α) (Homo sapiens (Human), UniProt O00329)
- Sequence (O00329 whole entry): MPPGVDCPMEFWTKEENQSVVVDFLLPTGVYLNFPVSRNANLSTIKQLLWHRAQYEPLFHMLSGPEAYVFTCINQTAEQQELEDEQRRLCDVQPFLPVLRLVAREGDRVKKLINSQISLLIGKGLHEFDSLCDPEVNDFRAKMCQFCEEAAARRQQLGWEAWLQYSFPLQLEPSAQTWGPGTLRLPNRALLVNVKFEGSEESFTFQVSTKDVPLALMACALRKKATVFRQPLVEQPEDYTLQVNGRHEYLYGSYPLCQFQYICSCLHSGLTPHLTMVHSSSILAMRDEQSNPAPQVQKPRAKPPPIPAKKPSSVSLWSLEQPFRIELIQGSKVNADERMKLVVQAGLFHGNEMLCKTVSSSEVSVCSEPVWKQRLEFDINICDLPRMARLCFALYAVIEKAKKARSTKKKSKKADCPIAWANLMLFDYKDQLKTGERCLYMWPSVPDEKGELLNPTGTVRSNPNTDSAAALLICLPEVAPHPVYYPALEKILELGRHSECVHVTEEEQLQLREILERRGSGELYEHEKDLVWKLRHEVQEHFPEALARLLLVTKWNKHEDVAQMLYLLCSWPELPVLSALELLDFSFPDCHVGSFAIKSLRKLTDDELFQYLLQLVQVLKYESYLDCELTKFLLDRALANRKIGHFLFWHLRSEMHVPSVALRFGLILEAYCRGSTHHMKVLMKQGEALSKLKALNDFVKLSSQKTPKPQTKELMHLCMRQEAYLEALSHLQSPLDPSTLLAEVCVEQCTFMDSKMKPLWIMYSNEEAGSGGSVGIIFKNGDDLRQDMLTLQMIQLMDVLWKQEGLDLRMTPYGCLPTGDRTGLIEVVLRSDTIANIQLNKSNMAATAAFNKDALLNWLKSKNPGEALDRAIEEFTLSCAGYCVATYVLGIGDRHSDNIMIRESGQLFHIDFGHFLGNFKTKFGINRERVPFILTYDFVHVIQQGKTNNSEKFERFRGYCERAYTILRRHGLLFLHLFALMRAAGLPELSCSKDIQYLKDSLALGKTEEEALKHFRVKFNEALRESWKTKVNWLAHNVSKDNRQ
- Sequence (P27986 whole entry partner): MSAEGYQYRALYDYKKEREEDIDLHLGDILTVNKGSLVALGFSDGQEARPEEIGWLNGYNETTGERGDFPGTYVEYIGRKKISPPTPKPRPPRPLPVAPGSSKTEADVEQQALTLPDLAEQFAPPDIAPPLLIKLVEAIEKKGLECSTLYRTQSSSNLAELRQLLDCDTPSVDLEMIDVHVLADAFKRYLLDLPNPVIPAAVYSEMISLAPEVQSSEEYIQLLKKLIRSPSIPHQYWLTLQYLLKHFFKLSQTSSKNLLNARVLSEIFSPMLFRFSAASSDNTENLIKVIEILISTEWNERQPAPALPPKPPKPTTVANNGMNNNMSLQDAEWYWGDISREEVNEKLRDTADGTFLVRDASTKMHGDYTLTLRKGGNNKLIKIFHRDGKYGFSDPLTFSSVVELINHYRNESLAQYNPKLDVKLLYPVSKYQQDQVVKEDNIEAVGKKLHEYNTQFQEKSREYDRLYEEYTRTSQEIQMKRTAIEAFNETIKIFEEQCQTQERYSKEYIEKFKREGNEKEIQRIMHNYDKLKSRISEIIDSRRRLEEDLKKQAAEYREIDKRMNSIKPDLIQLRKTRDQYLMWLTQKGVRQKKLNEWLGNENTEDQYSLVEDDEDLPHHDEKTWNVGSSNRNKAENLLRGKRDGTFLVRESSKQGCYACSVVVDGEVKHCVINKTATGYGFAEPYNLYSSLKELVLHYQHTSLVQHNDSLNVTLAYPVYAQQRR
- METHOD: PI3Kδ scintillation proximity assay (Example A3)
- MEASUREMENT SETUP: 20 μM ATP, 20 μM PIP2, 4 nM PI3Kδ; read-out: PI3Kδ SPA IC50
- Protocol: [γ-^33P]ATP (10 mCi/mL) was purchased from Perkin-Elmer (Waltham, Mass.). […] PI3Kδ (p110δ/p85α) was purchased from Millipore (Bedford, Mass.). ATP, MgCl2, DTT, EDTA, MOPS and CHAPS were purchased from Sigma-Aldrich (St. Louis, Mo.). Wheat Germ Agglutinin (WGA) YSi SPA Scintillation Beads was purchased from GE healthcare life sciences (Piscataway, N.J.). The kinase reaction was conducted in polystyrene 384-well matrix white plate from Thermo Fisher Scientific in a final volume of 25 μL. […]
EXPERIMENTAL ENDPOINT: IC50

MOLECULE	EXPERIMENTAL ENDPOINT	REPORTED VALUE
COc1c(C(C)n2nc(C)c3c(N)ncnc32)cc(Cl)c(C)c1-c1cncnc1 (single isomer, unassigned)	IC50	≤ 10 nM
CCOc1c(C(C)n2nc(C)c3c(N)ncnc32)cc(Cl)c(F)c1C1CNC(=O)C1 (single isomer, unassigned) [Example 347]	IC50	≤ 10 nM
CCOc1c(C(C)n2nc(C)c3c(N)ncnc32)cc(Cl)c(C#N)c1C1CNC(=O)C1 (single isomer, unassigned) [Example 350]	IC50	> 500 nM
COc1c(C(C)n2nc(C)c3c(N)ncnc32)cc(Cl)c(C)c1-c1cncc(S(C)(=O)=O)c1 (single isomer, unassigned)	IC50	≤ 10 nM
COc1c(C(C)n2nc(C)c3c(N)ncnc32)cc(Cl)c(C)c1-c1cncc(C#N)c1 (single isomer, unassigned)	IC50	≤ 10 nM
CCOc1c(C(C)n2nc(C)c3c(N)ncnc32)cc(Cl)c(C#N)c1C1CN(CC(C)(C)O)C1 (stereo not drawn)	IC50	≤ 10 nM
